Test system: A375 multi-cell spheroids with HUVEC/MSC, viability
Test: Anticancer human tumor A375 cell line growth inhibition [GQUAD];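 note: spheroids exposed to compounds for seven days before readout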
Conditions: second compound 1 µM; first compound 0.0316 µM; stronger effect = lower value
Reported viability, T/C values for the following compounds.
I only need the number, in %, no unit after it.

>>> reported("COc1ncnc(C2CC2)c1-c1ncc2cnn(Cc3ccc(-c4nc(C(F)(F)F)cn4C(C)C)cc3)c2n1 + CN(C)c1ccc(Nc2c3ccc(NC(=O)CCN4CCCC4)cc3nc3cc(NC(=O)CCN4CCCC4)ccc23)cc1")
109
>>> reported("Nc1ccn(C2OC(CO)C(O)C2(F)F)c(=O)n1 (stereo unspecified) + CN(C)c1ccc(Nc2c3ccc(NC(=O)CCN4CCCC4)cc3nc3cc(NC(=O)CCN4CCCC4)ccc23)cc1")
11
>>> reported("Cc1[nH]c2ccccc2c1CCNCc1ccc(/C=C/C(=O)NO)cc1 + Cc1[nH]c2ccc(F)cc2c1-c1nc2c3cccnc3c3ncccc3c2[nH]1")
106
>>> reported("O=C(c1cc(Cc2n[nH]c(=O)c3ccccc23)ccc1F)N1CCN(C(=O)C2CC2)CC1 + Cc1cnc(CNC(=O)c2c(=O)c3ccc(N4CCCN(C)CC4)nc3n3c2sc2ccccc23)cn1")
40.6
>>> reported("Nc1ccn(C2OC(CO)C(O)C2(F)F)c(=O)n1 (stereo unspecified) + Cc1[nH]c2ccc(F)cc2c1-c1nc2c3cccnc3c3ncccc3c2[nH]1")
22.9

# Cn1ncnc1[C@H]1c2n[nH]c(=O)c3cc(F)cc(c23)N[C@@H]1c1ccc(F)cc1 + Cc1[nH]c2ccc(F)cc2c1-c1nc2c3cccnc3c3ncccc3c2[nH]1 with A375 multi-cell spheroids with HUVEC/MSC, viability: viability, T/C is 137

* * *

Tested on: A375 multi-cell spheroids with HUVEC/MSC, viability
Test: Anticancer human tumor A375 cell line growth inhibition [GQUAD];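 note: spheroids exposed to compounds for seven days before readout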
Settings: curve of first compound; second compound 3.16 µM
Catalogue of IC50 readings, one per entry.

Examples with their reported IC50 follow.
>>> reported("COc1cccc2c1C(=O)c1c(O)c3c(c(O)c1C2=O)CC(O)(C(=O)CO)CC3OC1CC(N)C(O)C(C)O1 (centres undefined) + Cc1cnc(CNC(=O)c2c(=O)c3ccc(N4CCCN(C)CC4)nc3n3c2sc2ccccc23)cn1")
"< 31.6 nM"
>>> reported("C=CC(=O)N1CCN(c2nc(=O)n(-c3c(C)ccnc3C(C)C)c3nc(-c4c(O)cccc4F)c(F)cc23)C(C)C1 (centres undefined) + Cc1cnc(CNC(=O)c2c(=O)c3ccc(N4CCCN(C)CC4)nc3n3c2sc2ccccc23)cn1")
"< 31.6 nM"
>>> reported("CC(=O)O[C@H]1C(=O)[C@@]2(C)[C@H]([C@H](OC(=O)c3ccccc3)[C@]3(O)C[C@H](OC(=O)[C@H](O)[C@@H](NC(=O)c4ccccc4)c4ccccc4)C(C)=C1C3(C)C)[C@]1(OC(C)=O)CO[C@@H]1C[C@@H]2O + CN(C)c1ccc(Nc2c3ccc(NC(=O)CCN4CCCC4)cc3nc3cc(NC(=O)CCN4CCCC4)ccc23)cc1")
"65.2 nM"

Next molecule, please.
Quick note, IC50 for C=CCn1c(=O)c2cnc(Nc3ccc(N4CCN(C)CC4)cc3)nc2n1-c1cccc(C(C)(C)O)n1 + Cc1cnc(CNC(=O)c2c(=O)c3ccc(N4CCCN(C)CC4)nc3n3c2sc2ccccc23)cn1 landed at < 31.6 nM
